Hello, the source for this data is patent US20260146035A1, in case you need it.

molecular target: human TYRO3 (455-end) (Homo sapiens); construct: TYRO3 (455-end); purchased SignalChem, Canada; test: HTRF kinase activity biochemical assay, TYRO3; conditions: 10 μM ATP, 30 minutes pre-incubation; read-out: HTRF TYRO IC50
pIC50: −log10 of the molar value.
Measurement Kind: pIC50

Worked examples follow.
Compound: Nc1ncc(-c2cncc(F)c2)cc1C(=O)N[C@H]1CCC[C@@H]1OCc1ccc(-c2ccc3c(c2)CCCC3N2CCN(CCO)CC2)cc1 (stereo partly drawn) [Example 123]
Measurement Kind: pIC50
Measured Result: 7.00 to 8.00
//
Compound: Nc1ncc(C(F)(F)F)cc1C(=O)N[C@H]1CCC[C@@H]1OCc1ccc(-c2ccc3c(c2)OCCC3N2CCN(CCO)CC2)cc1 (stereo partly drawn) [Example 133]
Measurement Kind: pIC50
Measured Result: < 6.00

Here is another compound to look at.
Could you tell me which pIC50 is on file for Cn1cc(-c2cnc(N)c(C(=O)N[C@H]3CCC[C@@H]3OCc3ccc(-c4ccc5c(c4)C(C)(C)CC5N4CCN(CCO)CC4)cc3)c2)cn1 (stereo partly drawn) [Example 83] ?
> 8.00

====

Target: human MER (528-end) (Homo sapiens)
Construct: human MER (528-end); purchased Camnabio, Japan
Sequence (Q12866 528-999 limits assumed): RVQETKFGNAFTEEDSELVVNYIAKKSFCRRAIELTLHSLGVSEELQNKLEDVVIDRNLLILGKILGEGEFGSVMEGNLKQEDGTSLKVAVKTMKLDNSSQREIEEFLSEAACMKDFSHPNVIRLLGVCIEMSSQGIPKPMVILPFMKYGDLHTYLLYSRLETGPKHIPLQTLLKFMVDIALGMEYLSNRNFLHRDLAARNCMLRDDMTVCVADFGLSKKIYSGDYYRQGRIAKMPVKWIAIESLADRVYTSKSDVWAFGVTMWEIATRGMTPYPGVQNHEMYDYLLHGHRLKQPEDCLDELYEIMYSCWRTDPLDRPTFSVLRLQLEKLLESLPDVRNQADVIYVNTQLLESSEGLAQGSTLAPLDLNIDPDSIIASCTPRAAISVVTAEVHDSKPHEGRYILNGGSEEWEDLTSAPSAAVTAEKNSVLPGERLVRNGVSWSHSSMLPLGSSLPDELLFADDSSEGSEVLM
Assay: HTRF kinase activity biochemical assay, MER
Conditions: 10 μM ATP, 30 minutes pre-incubation; read-out: HTRF MERTK IC50
Procedure: For the SAR (structure-activity relationship) and compound screening, HTRF (Homogeneous Time Resolved Fluorescence) kinase activity assay was employed for all MER, AXL and TYRO3 kinases using Cisbio HTRF® KinEASE™-TK kit (Cisbio, USA). The kit included biotin-labeled TK substrate, streptavidin-XL665, Eu3+-cryptate-labeled TK antibody and HTRF® Detection buffer. […] After 1 hour incubation at room temperature, the fluorescence intensity was measured with Envision[…] plate reader (PerkinElmer, USA). […]
Measurement Kind: IC50

Compound: CN(C)CCC(=O)N1Cc2ccc(-c3ccc(CO[C@H]4CCC[C@@H]4NC(=O)c4cc(-c5cnn(C)c5)cnc4N)cc3)cc2C1
Tested Target: human MER (528-end) (Homo sapiens)
IC50: 0.1 to 1 µM
//
Compound: Cn1cc(-c2cnc(N)c(C(=O)N[C@H]3CCC[C@@H]3OCc3ccc(-c4ccc5c(ccn5C5CCNCC5)c4)cc3)c2)cn1
Tested Target: human MER (528-end) (Homo sapiens)
IC50: < 0.01 µM

Here is another compound to look at.
Could you tell me which IC50 is on file for Nc1ncc(C(F)(F)F)cc1C(=O)N[C@H]1CCC[C@@H]1OCc1ccc(-c2ccc3c(c2)OCCC3N2CCN(CCO)CC2)cc1 (stereo partly drawn) ?
< 0.01 µM

====

// reported IC50 for each item listed
biological target: human TYRO3 (455-end) (Homo sapiens, UniProt Q06418); construct: TYRO3 (455-end); purchased SignalChem, Canada; test: HTRF kinase activity biochemical assay, TYRO3; details: 10 μM ATP, 30 minutes pre-incubation; read-out: HTRF TYRO IC50
Sequence (Q06418 455-890 limits assumed): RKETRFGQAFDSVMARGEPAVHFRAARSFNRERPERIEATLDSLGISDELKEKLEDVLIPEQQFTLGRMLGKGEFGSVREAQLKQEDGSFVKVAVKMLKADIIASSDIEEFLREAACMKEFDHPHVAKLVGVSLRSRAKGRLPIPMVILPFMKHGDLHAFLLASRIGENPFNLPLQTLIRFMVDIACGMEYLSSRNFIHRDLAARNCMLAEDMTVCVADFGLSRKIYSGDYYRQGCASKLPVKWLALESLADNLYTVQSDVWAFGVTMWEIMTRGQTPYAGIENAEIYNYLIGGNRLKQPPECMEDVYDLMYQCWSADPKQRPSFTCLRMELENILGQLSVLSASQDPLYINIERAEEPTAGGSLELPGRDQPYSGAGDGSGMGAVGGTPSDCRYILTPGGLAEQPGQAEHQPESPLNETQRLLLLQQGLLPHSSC

Worked examples follow.
Compound: CN1CCC(C(=O)NC2Cc3ccc(-c4ccc(CO[C@H]5CCC[C@@H]5NC(=O)c5cc(-c6cnn(C)c6)cnc5N)cc4)cc3C2)CC1 (stereo partly drawn)
IC50: > 1000 nM
--
Compound: Nc1ncc(-c2cncc(F)c2)cc1C(=O)N[C@H]1CCC[C@@H]1OCc1ccc(-c2ccc3c(c2)OCCC3N2CCN(CCO)CC2)cc1 (stereo partly drawn)
IC50: 100 to 1000 nM
--
Compound: CN(CCC(O)CO)C1CCc2cc(-c3ccc(CO[C@H]4CCC[C@@H]4NC(=O)c4cc(-c5cnn(C)c5)cnc4N)cc3)ccc21 (stereo partly drawn)
IC50: > 1000 nM

Could you tell me which IC50 is on file for Nc1ncc(-c2cccnc2F)cc1C(=O)N[C@H]1CCC[C@@H]1OCc1ccc(-c2ccc3c(c2)CCC3N2CCN(CCO)CC2)cc1 (stereo partly drawn) ?
100 to 1000 nM

Could you tell me which IC50 is on file for Cn1cc(-c2cnc(N)c(C(=O)N[C@H]3CCC[C@@H]3OCc3ccc(-c4ccc5c(c4)CCC[C@@H]5N4CCN(C[C@H](O)CO)CC4)cc3)c2)cn1 ?
10 to 100 nM

Could you tell me which IC50 is on file for CN1CCN([C@H]2CCc3cc(-c4ccc(CO[C@H]5CCC[C@@H]5NC(=O)c5cc(-c6ccn(C)c(=O)c6)cnc5N)cc4)ccc32)CC1 ?
100 to 1000 nM
